Task for the reader: assign each of the following compounds its reported pIC50.
# Test system: Recombinant human KIF18A (1-467 His-tagged) protein (Homo sapiens (Human))
# Assay comment: KIF18A Enzyme Assay: microtubule-stimulated ATPase activity (ADP-Glo)
# Protocol conditions: read-out: KIF18A ATPase IC50; 30 nM KIF18A, 30 μg/mL pig microtubules, ATP at Km 75 μM, ADP-Glo luminescence
Please report pIC50 as the negative decimal logarithm of the molar concentration, giving only the number.

Answer with the recorded pIC50 for the compound listed here: Cc1cc(NC(=O)c2ccc(NS(=O)(=O)[C@H](C)CO)cc2N2CCC3(CC2)CC3)nc(N2CCO[C@H](C)C2)n1 [Example 6-23-2] 7.43

Answer with the recorded pIC50 for the compound listed here: C[C@H]1CN(c2nccc(NC(=O)c3ccc(NS(=O)(=O)CCO)cc3N3CCC4(CC3)CC4)n2)CCO1 [Example 11-1] 7.43

Answer with the recorded pIC50 for the compound listed here: Cc1cc(NC(=O)c2ccc(S(=O)(=O)NCC(C)(C)O)cc2N2CCC3(CC2)CC3)nc(N2CCC(F)(F)CC2)n1 [Example 17-8] 6.54

Answer with the recorded pIC50 for the compound listed here: Cc1cc(NC(=O)c2ccc(NS(=O)(=O)CCO)cc2N2CCC3(CC2)CC3)nc(N2CCCC2)n1 [Example 11-26] 7.15

Answer with the recorded pIC50 for the compound listed here: Cc1cc(NC(=O)c2ccc(NS(=O)(=O)C3CCC3)cc2N2CCC3(CC2)CC3)nc(N2CCC(F)(F)CC2)n1 [Example 6-11] 6.90

Answer with the recorded pIC50 for the compound listed here: Cc1cc(NC(=O)c2ccc(S(C)(=N)=O)cc2N2CCC3(CC2)CC3)nc(N2CCC(F)(F)CC2)n1 (stereo not shown) [Example 19-2] 6.36

Answer with the recorded pIC50 for the compound listed here: Cc1cc(NC(=O)c2ccc(NS(=O)(=O)CCO)cc2N2CCC3(CC2)CC3)nc(OC2CCC2)n1 [Example 11-4] 7.74

---

# Test system: Recombinant human KIF18A (1-467 His-tagged) protein (Homo sapiens (Human), UniProt Q8NI77)
# Sequence (Q8NI77 1-467): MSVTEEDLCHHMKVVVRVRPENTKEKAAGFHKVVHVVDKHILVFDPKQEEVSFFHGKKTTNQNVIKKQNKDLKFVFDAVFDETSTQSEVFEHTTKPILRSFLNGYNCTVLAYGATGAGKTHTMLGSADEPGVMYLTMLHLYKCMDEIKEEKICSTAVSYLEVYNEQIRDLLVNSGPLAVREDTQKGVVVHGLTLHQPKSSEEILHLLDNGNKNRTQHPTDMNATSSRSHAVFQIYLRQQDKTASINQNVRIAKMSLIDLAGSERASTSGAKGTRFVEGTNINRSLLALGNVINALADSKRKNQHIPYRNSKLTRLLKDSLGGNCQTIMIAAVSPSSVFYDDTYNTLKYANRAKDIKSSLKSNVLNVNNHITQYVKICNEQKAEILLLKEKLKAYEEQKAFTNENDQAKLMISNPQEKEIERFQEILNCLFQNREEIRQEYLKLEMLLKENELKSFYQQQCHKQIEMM
# Sequence (P02550 whole entry partner): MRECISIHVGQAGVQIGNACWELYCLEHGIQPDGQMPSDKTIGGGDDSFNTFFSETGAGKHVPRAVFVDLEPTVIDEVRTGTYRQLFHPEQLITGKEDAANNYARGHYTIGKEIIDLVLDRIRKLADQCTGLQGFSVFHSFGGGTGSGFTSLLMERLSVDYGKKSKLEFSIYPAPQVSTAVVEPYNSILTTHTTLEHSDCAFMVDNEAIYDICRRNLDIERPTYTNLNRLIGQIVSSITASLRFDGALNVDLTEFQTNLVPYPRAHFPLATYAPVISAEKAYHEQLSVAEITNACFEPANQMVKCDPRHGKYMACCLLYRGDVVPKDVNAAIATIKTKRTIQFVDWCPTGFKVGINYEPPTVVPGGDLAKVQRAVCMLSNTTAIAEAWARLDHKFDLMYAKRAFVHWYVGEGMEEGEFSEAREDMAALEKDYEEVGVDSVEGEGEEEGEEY
# Sequence (P02554 whole entry partner): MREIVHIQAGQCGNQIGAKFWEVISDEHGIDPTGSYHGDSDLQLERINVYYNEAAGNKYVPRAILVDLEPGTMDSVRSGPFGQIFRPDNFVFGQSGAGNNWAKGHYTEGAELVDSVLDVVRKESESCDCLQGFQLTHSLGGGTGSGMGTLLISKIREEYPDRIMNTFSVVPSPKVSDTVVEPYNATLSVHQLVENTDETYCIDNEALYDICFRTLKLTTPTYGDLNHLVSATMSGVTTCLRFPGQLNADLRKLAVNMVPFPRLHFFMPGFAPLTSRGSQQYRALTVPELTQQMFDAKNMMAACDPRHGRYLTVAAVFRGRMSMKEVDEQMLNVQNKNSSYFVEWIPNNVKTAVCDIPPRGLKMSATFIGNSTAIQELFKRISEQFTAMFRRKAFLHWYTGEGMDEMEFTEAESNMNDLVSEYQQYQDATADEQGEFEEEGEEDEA
# Assay comment: KIF18A Enzyme Assay: microtubule-stimulated ATPase activity (ADP-Glo)
# Protocol conditions: read-out: KIF18A ATPase IC50; 30 nM KIF18A, 30 μg/mL pig microtubules, ATP at Km 75 μM, ADP-Glo luminescence
Assay readout: pIC50
Please report pIC50 as the negative decimal logarithm of the molar concentration, giving only the number.

Answer with the recorded pIC50 for the compound listed here: Cc1cc(NC(=O)c2ccc(NS(=O)(=O)CCO)cc2N2CCC3(CC2)CC3)nc(N2CC(F)(F)C2)n1 [Example 7] 7.64

Answer with the recorded pIC50 for the compound listed here: Cc1cc(NC(=O)c2ccc(S(=O)(=O)C(C)(C)C)cc2N2CCC3(CC2)CC3)nc(N2CCC(F)(F)CC2)n1 [Example 14-6] 5.73

Answer with the recorded pIC50 for the compound listed here: C[C@@H]1CN(c2nccc(NC(=O)c3ccc(NS(=O)(=O)C[C@@H](C)O)cc3N3CCC4(CC3)CC4)n2)CCO1 [Example 6-33-2] 7.07

Answer with the recorded pIC50 for the compound listed here: Cc1cc(NC(=O)c2ccc(NS(=O)(=O)CCO)cc2N2CCC3(CC2)CC3)cc(N2CCC(F)(F)CC2)n1 [Example 6-30] 7.42

Answer with the recorded pIC50 for the compound listed here: O=C(Nc1ccnc(N2CCC(F)(F)CC2)c1F)c1ccc(NS(=O)(=O)CCO)cc1N1CCC2(CC1)CC2 [Example 11-63] 7.66

Answer with the recorded pIC50 for the compound listed here: Cc1cc(NC(=O)c2ccc(NS(=O)(=O)CCO)cc2N2CCC3(CC2)CC3)nc(N2CCC(C#N)CC2)n1 [Example 11-33] 7.06

Answer with the recorded pIC50 for the compound listed here: Cc1cc(NC(=O)c2ccc(NS(=O)(=O)C(C)(C)C)cc2N2CCC3(CC2)CC3)nc(N2CC(F)(F)C2)n1 [Example 11-83] 7.01

Answer with the recorded pIC50 for the compound listed here: Cc1cc(NC(=O)c2ccc(NS(=O)(=O)[C@@H](CO)CF)cc2N2CCC3(CC2)CC3)nc(N2CCC(F)(F)CC2)n1 [Example 16-2] 7.02

Answer with the recorded pIC50 for the compound listed here: Cc1cc(NC(=O)c2ccc(NS(=O)(=O)CCO)cc2N2CCC3(CC2)CC3)nc(N2[C@H](C)COC[C@H]2C)n1 [Example 11-50] 6.73

Answer with the recorded pIC50 for the compound listed here: Cc1cc(NC(=O)c2ccc(NS(=O)(=O)[C@H](CO)CF)cc2N2CCC3(CC2)CC3)nc(N2CCC(F)(F)CC2)n1 [Example 16-1] 7.05

Answer with the recorded pIC50 for the compound listed here: Cc1cc(NC(=O)c2ccc(NS(C)(=O)=O)cc2N2CCC3(CC2)CC3)nc(N2CCC(F)(F)CC2)n1 [Example 6-21] 7.41

Answer with the recorded pIC50 for the compound listed here: Cc1cc(NC(=O)c2ccc(NS(=O)(=O)CCO)cc2N2CCC3(CC2)CC3)nc(N2CCC(O)CC2)n1 [Example 11-37] 6.84

Answer with the recorded pIC50 for the compound listed here: Cc1cc(NC(=O)c2ccc(NS(=O)(=O)CCO)cc2N2CCC3(CC2)CC3)nc(NC(C)(C)CO)n1 [Example 11-62] 7.74

Answer with the recorded pIC50 for the compound listed here: CCS(=O)(=O)Nc1ccc(C(=O)Nc2cc(C)nc(N3CCC(F)(F)CC3)n2)c(N2CCC3(CC2)CC3)c1 [Example 6-7] 6.91
